# EXPERIMENT: Pharmacokinetic evaluation in mice
# Format: in vivo, CD1 mice
# EXPERIMENTAL SETUP: plasma; mouse PO (10 mg/kg) vs IV (2 mg/kg)
REPORTED PROPERTY: bioavailability (%)
Answers are plain numbers, in %.

(Q) If you can, please state the reported bioavailability value of O=C1C(Cc2ccc(Cl)c(F)c2)CCCN1c1nc2c([nH]1)COc1cnccc1-2 (stereo not shown) [Cpd. 25] .
(A) 89

* * *

# EXPERIMENT: Pharmacokinetic evaluation in mice
# Format: in vivo, CD1 mice
# EXPERIMENTAL SETUP: plasma; mouse PO (10 mg/kg)
REPORTED PROPERTY: half-life

(Q) // lookup half-life for O=C1C(Cc2ccc(Cl)c(F)c2)CCCN1c1nc2c([nH]1)COc1cnccc1-2 (stereo not shown) [Cpd. 25]
(A) 1.84 h
